Biological target: T1, human LAG-3 expressed on cells (human, UniProt P18627 23-525)
T1 construct: whole, on cells; also called CD223
T1 sequence (looked up): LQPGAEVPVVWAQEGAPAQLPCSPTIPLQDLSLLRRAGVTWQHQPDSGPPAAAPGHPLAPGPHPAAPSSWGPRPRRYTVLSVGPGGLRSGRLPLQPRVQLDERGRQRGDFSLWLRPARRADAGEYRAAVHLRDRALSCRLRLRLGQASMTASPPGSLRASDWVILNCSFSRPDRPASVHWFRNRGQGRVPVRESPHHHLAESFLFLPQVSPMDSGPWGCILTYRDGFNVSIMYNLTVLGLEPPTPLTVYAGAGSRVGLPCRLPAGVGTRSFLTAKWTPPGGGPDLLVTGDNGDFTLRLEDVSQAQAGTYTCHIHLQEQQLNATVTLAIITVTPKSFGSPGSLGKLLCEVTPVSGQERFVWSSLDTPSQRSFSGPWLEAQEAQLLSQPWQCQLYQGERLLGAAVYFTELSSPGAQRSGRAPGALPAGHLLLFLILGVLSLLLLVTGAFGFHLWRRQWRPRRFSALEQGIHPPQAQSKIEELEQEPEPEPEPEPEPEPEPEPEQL
Test: flow cytometry, Fab periplasmic extract on Jurkat cells expressing human LAG-3 (FIGS. 1A-1C)
Quantity Measured: binding result

P13D04 Fab (Fab, V domains shown, Murine Fab, periplasmic extract) VH: QVQLQQSGAELVKPGASVKLSCTASGFNIKDNYMDWVKQRPEQGLEWIGKIDPANGNTKYDPKFQGKATITADTSSNTAYLQLSSLTSEDTAVYYCATYYYRYDVGGFDYWGQGTTLTVS VL: DIVLTQSPALMAASPGEKVTITCSVSSSISSSNLHWFQQKSGTPPKLWIYGTSNLASGVPVRFSGSGSGTSYSLTISSMEAEDAATYYCQQWSSYPFTFGSGTKLEIK    binds
P13G01 Fab (Fab, V domains shown, Murine Fab, periplasmic extract) VH: EVQLQQSGAELVKPGASVELSCTASGFNIRDTYMYWVKQRPEQGLEWIGRIDPANGNTKFDPKFQDRATMTADTSSNTAYLQLSSLTSEDTAVYYCTTYFYRYDVGGFDYWGQGTTLTVS VL: QIVLTQSPALMAASPGEKVTITCSVSSSISSSNLHWYQQKSGTSPKLWIYGTSNLASGVPVRFSGSGSGTSYSLTISSMEAEDAATYYCQQWSSYPFTFGSGTKLEIK    binds
P14F06 Fab (Fab, V domains shown, Murine Fab, periplasmic extract) VH: QVQMKQSGAELVKPGASVKLSCTASGFNIKDNYIHWVKQRPEQGLEWIGSIDPANGNTKYDPKFQGKASITADTSSNTAYLQLSSLTSEDTAVYYCASYFYRYDVGGFDYWGQGTTLTVS VL: EIVLTQSPALMAASPGEKVTITCSVSSSISSSNLHWFQQKSGTSPKLWIYGTSNLASGVPVRFSGSGSGTSYSLTISSMEAEDAATYYCQQWSSYPFTFGSGTKLEIK    binds

Where do these numbers come from? They come from patent US20250206818A1.
